# AC50 values compiled below
assay: Luminescence Cell-Based Dose Retest to Confirm Inhibitors of Cancer Stem Cells. [Related pubchem assays (depositor defined):AID2717, AID2721]; type: functional; conditions: Homo sapiens
Activity calls are given as the source filed them.

Recorded results for 5 compounds are shown here.
                                 cpd_smiles             result
0  CN(C)CCOc1ccc(-c2c(-c3ccccc3)sc3ccccc23)cc1   2.93 µM (active)
1       CCOC(=O)c1sc(NC(=O)Nc2ccccc2Cl)cc1C   5.37 µM (active)
2  Cc1c(C2(O)CCCCC2)[nH]c2cc(C(F)(F)F)ccc12   7.81 µM (active)
3  C[C@]12CC[C@H](O)C[C@H]1CC[C@@H]1[C@@H]2CC[C@]2(C)[C@@H](C3=CC(=O)OC3)CC[C@]12O  0.467 µM (active)
4  O=C(NCc1cccnc1)/C(=C\c1ccc(-c2cccc(Cl)c2)o1)S(=O)(=O)c1ccccc1   2.35 µM (active)

Let us examine a further case.
Problem: Quick one: AC50 for `O=C(NCc1ccco1)c1ccc2c(c1)N(Cc1ccccc1)CCS2` ?
Solution: 11.3 µM (active)

###

target: RNA-binding protein pos-1 (Caenorhabditis elegans, UniProt G5EF15); test: inhibitors of POS-1/mex-3 RNA binding, dose response, biochemical, fluorescence polarization (AID 1964);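 further: purified POS-1 fused to maltose binding protein made in E. coli; potency of compounds blocking POS-1 binding to fluorescent RNA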
Sequence (G5EF15 whole entry, the tested form may be a part): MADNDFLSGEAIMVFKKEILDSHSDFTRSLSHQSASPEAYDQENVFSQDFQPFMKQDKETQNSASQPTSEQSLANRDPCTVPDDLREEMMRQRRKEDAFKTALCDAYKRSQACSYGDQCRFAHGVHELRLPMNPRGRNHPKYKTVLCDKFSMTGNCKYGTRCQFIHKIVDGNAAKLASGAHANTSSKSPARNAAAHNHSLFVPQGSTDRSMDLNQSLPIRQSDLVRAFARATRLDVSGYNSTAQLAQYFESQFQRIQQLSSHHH
Active and inactive are the calls of the source.
Quick reference: EC50 of the listed items.

Problem: // lookup EC50 for `Cc1ccc2cc(/C=C3\N=C(c4ccccc4)OC3=O)c(N3CCOCC3)nc2c1`
Solution: > 300 µM (not active)

Problem: // returns reported EC50 for input `CCCCN1C(=O)/C(=C2/Sc3ccc(OC)cc3N2CC)SC1=S`
Solution: > 300 µM (inconclusive)

Problem: Value lookup for EC50; key = `CCOC(=O)C(C(=O)OCC)c1cc(Br)c2noc3c2c1C(=O)c1ccccc1-3`
Solution: 9.23 µM (active)

Problem: Value lookup for EC50; key = `O=S(=O)(NNC(=S)Nc1ccc(S(=O)(=O)Nc2ncccn2)cc1)c1ccc(Br)cc1`
Solution: 2.97 µM (inconclusive)

Problem: I'd like to know its EC50. The compound in question is `COc1ccc(/C=C2\CCCC(C(=O)C(F)(F)F)=C2O)cc1OC`
Solution: > 300 µM (not active)

Problem: What value of EC50 has been reported for the following compound? `OCCCNc1ncnc2sc3c(c12)CCN(Cc1ccccc1)C3`
Solution: > 300 µM (not active)

Problem: What does the record list as EC50 for `CCOc1cc(/C=C2/C(=O)ON=C2C)ccc1OCc1ccccc1F` ?
Solution: 53.5 µM (active)

Problem: Which EC50 reading was recorded for the compound CC1(C)CC(=O)C2=C(C1)OC(N)=C(C#N)C21C(=O)N2CCCc3cccc1c32 (centres undefined) ?
Solution: > 300 µM (not active)

Problem: // EC50 lookup, key: `Cc1n[nH]c(O)c1/C=N/N1CCOCC1`
Solution: > 300 µM (not active)

###

Active and inactive are the calls of the source.
Reported values: IC50 for Estrogen receptor (Homo sapiens), one per item.

Answered examples (4):
In [3]: df
Out[3]:
                                   molecule  readout_label                result
0  C=CCn1c(SCC(=O)NC2CCCCC2)nnc1C(C)NC(=O)c1cccs1 (stereo not given)           IC50  > 50 µM (not active)
1  CC(=O)c1c(COC(=O)c2ccco2)nc2ccccc2[n+]1[O-]           IC50      29.2 µM (active)
2  N#Cc1c(NCCN)nc(NCc2ccccc2)c2c1CCN(Cc1ccccc1)C2           IC50      11.8 µM (active)
3  Cc1cccc(NC2=NC(=O)/C(=C3/C(=O)N(C)c4ccccc43)S2)c1C           IC50  32.9 µM (not active)

Moving on to the next molecule.
Problem: // lookup IC50 | system=Estrogen receptor (Homo sapiens) | key= `CCn1nnc(NC(=O)CSc2ccc(Cl)cc2)n1`;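 further: potency for inhibiting coactivator peptide recruitment to the receptor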
Solution: 9.27 µM (active)
